experiment: Selectivity index, ratio of CC50 for human HepG2(2.2.15) cells to IC50 for inhibition of HBV HBsAg secretion in HepG2(2.2.15) cells; type: functional
QUANTITY: Ratio CC50/IC50
Give bare numbers.

O=C(O)c1ccccc1C(=O)OCc1cccc2c1CCOC2=O: 1.8
O=Cc1cccc2c1CCOC2=O: 1.4

Lab note: next molecule to report on.
For the molecule O=C(OCc1cccc2c1CCOC2=O)c1cc(=O)c2ccccc2o1 , give its measured Ratio CC50/IC50 value.
1.1

---

system: Hepatitis B virus; test: Inhibition of HBV HBsAg secretion in HepG2(2.2.15) cells after 72 hrs by ELISA method; format: functional, organism-based; details: HepG2 2.2.15, 72 h
Exercise: for every item that follows, state its recorded IC50.

Completed entries (count: 6):
O=C1OCCc2c(/C=C\c3ccccc3)cccc21: > 2160 µM
O=C1/C(=C/c2cccc3c2CCOC3=O)Oc2cc(O)ccc21: > 1810 µM
O=C(OCc1cccc2c1CCOC2=O)c1cc2ccccc2o1: 1630 µM
O=C(O)c1ccccc1C(=O)OCc1cccc2c1CCOC2=O: 72 µM
NC(=O)c1cccc2c1CCOC2=O: > 3290 µM
O=C(OCc1cccc2c1CCOC2=O)c1cccnc1: > 2700 µM

Quick one: give me IC50 for each item below, same order please.
1. O=C(OCc1cccc2c1CCOC2=O)c1cccc([N+](=O)[O-])c1
2. O=Cc1cccc2c1CCOC2=O
3. COc1cccc(/C=C/C(=O)OCc2cccc3c2CCOC3=O)c1

1: > 2720 µM; 2: 1300 µM; 3: > 1620 µM

---

Exercise: for every item that follows, state its recorded CC50 at 72 h.
assay: Cytotoxicity against human HepG2(2.2.15) cells after 72 hrs by MTT assay; assay type: cell-based

Completed entries (count: 5):
O=Cc1cccc2c1CCOC2=O: 1760 µM
O=C1/C(=C/c2cccc3c2CCOC3=O)Oc2cc(O)ccc21: > 1810 µM
O=C1OCCc2c(COC(=O)C3CCCCC3)cccc21: > 1840 µM
O=C(OCc1cccc2c1CCOC2=O)c1cc(=O)c2ccccc2o1: 2570 µM
O=C1OCCc2c(/C=N\O)cccc21: > 4000 µM

Quick one: give me CC50 at 72 h for each item below, same order please.
1. O=C(OCc1cccc2c1CCOC2=O)c1ccc([N+](=O)[O-])cc1
2. O=C(O)c1ccccc1C(=O)OCc1cccc2c1CCOC2=O
3. O=C1OCCc2c(/C=C\c3ccccc3)cccc21
4. COc1cccc(/C=C/C(=O)OCc2cccc3c2CCOC3=O)c1
5. O=C1OCCc2c1cccc2C1OCCO1
6. CCC(CC)C(=O)OCc1cccc2c1CCOC2=O
7. NC(=O)c1cccc2c1CCOC2=O
8. O=C(OCc1cccc2c1CCOC2=O)c1ccco1

> 2260 µM
130 µM
> 2160 µM
> 1620 µM
> 2580 µM
1890 µM
> 3290 µM
> 2350 µM

For the molecule O=C1OCCc2c(CO)cccc21 , give its measured CC50 at 72 h value.
> 3800 µM

---

assay: Cytotoxicity against human HepG2(2.2.15) cells after 72 hrs by MTT assay; type: cell-based
QUANTITY: CC50 at 72 h

O=C1OCCc2c(/C=C/c3ccccc3)cccc21: > 2430 µM

Quick one: give me CC50 at 72 h for each item below, same order please.
1. O=C(OCc1cccc2c1CCOC2=O)c1cc2ccccc2[nH]1
2. O=C(O)c1cccc2c1CCOC2=O
3. N=C(N)c1cccc2c1CCOC2=O
4. O=C(OCc1cccc2c1CCOC2=O)c1cc2ccccc2o1
5. C[C@H](Cn1cnc2c(N)ncnc21)OCP(=O)(O)O [TENOFOVIR ANHYDROUS]
6. O=C(OCc1cccc2c1CCOC2=O)c1cccc([N+](=O)[O-])c1
7. CCOCC(=O)OCc1cccc2c1CCOC2=O

1: > 2050 µM; 2: > 4540 µM; 3: 2050 µM; 4: 830 µM; 5: 1850 µM; 6: > 2720 µM; 7: > 3680 µM

Quick one: give me CC50 at 72 h for each item below, same order please.
1. CC(=O)OCc1cccc2c1CCOC2=O
2. O=C(OCc1cccc2c1CCOC2=O)c1cccnc1
3. O=C1OCCc2c(/C=N/Nc3ccc([N+](=O)[O-])cc3[N+](=O)[O-])cccc21
4. CCCCCCCC(=O)OCc1cccc2c1CCOC2=O

1. > 2430 µM
2. > 2700 µM
3. > 1650 µM
4. > 3450 µM

---

assay: Selectivity index, ratio of CC50 for human HepG2(2.2.15) cells to IC50 for inhibition of HBV HBsAg secretion in HepG2(2.2.15) cells; format: functional
Exercise: for every item that follows, state its recorded Ratio CC50/IC50.

Completed entries (count: 3):
O=C(O)c1cccc2c1CCOC2=O: >1.4
CC(=O)OCc1cccc2c1CCOC2=O: >1.8
O=C1OCCc2c(CO)cccc21: >1.4

Lab note: next molecule to report on.
For the molecule O=C(OCc1cccc2c1CCOC2=O)c1cc2ccccc2o1 , give its measured Ratio CC50/IC50 value.
<1

---

test system: Hepatitis B virus; assay: Inhibition of HBV HBsAg secretion in HepG2(2.2.15) cells after 72 hrs by ELISA method; assay type: functional, organism-based; details: HepG2 2.2.15, 72 h
QUANTITY: IC50

Completed entries (count: 3):
CCOCC(=O)OCc1cccc2c1CCOC2=O: > 3680 µM
O=C(OCc1cccc2c1CCOC2=O)c1ccco1: > 2350 µM
N=C(N)c1cccc2c1CCOC2=O: 2240 µM

Quick one: give me IC50 for each item below, same order please.
1. O=C(O)c1cccc2c1CCOC2=O
2. O=C1OCCc2c1cccc2C1OCCO1
3. O=C1OCCc2c(/C=C/c3ccccc3)cccc21

1: 3180 µM; 2: > 2580 µM; 3: > 2430 µM

Quick one: give me IC50 for each item below, same order please.
1. CCC(CC)C(=O)OCc1cccc2c1CCOC2=O
2. O=C1OCCc2c(/C=N\O)cccc21
3. O=C1OCCc2c(/C=N/Nc3ccc([N+](=O)[O-])cc3[N+](=O)[O-])cccc21
4. O=C(OCc1cccc2c1CCOC2=O)c1cc2ccccc2[nH]1
5. O=C(OCc1cccc2c1CCOC2=O)c1ccc([N+](=O)[O-])cc1
6. C[C@H](Cn1cnc2c(N)ncnc21)OCP(=O)(O)O [TENOFOVIR ANHYDROUS]
7. O=C(OCc1cccc2c1CCOC2=O)c1cc(=O)c2ccccc2o1

> 2590 µM
> 4000 µM
> 1650 µM
> 2050 µM
> 2260 µM
2320 µM
2300 µM

Quick one: give me IC50 for each item below, same order please.
1. O=C1OCCc2c(CO)cccc21
2. CCCCCCCC(=O)OCc1cccc2c1CCOC2=O
3. O=C1OCCc2c(COC(=O)C3CCCCC3)cccc21
4. CC(=O)OCc1cccc2c1CCOC2=O

["2700 µM", "> 3450 µM", "> 1840 µM", "1310 µM"]
